// provenance: patent US20200270339A1

# study-system: human IL-15 complexed with the IL-15 Receptor-alpha (human, UniProt P40933 49-162)
# Sequence (P40933 49-162 limits assumed, chain 1 of 2): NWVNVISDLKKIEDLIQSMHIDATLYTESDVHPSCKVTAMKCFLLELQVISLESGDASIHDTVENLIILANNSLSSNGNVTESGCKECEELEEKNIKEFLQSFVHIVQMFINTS
# Sequence (chain, as listed by the source limits assumed, chain 2 of 2): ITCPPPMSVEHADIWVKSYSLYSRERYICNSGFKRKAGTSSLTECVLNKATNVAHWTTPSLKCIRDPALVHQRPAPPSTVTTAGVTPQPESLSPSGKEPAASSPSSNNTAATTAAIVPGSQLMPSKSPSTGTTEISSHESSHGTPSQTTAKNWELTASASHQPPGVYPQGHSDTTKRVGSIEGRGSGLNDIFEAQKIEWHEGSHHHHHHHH
# assay-info: cell-based or functional assay
reported-endpoint: IC 50 (NK-92) in pM (pM)
One number for each entry, in pM.

Antibody 79 (antibody, V domains shown) VH: QVQLQESGPGLVKPSGTLSLTCAVSGGSISSSNWWSWVRQPPGKGLEWIGEIYHYGYTNYNPSLKSRVTISVDKSKNQFSLKLISVTAADTAVYYCAREGIGWPSFDYWGQGTLVTVSS VL: SSELTQDPAASVALGQTVRITCQGDTLRSYYASWYQQKPGQAPILVIYGKNNRPSGIPDRFSGSSSGNTASLTITGAQAEDEADYYCNSRDLSGKNLVFGGGTKLTVL : 12.4
Antibody 73 (antibody, V domains shown) VH: QVQLQESGPGLVKPSGTLSLTCAVSGGSISSSNWWSWVRQPPGKGLEWIGEIYHYGYTNYNPSLKSRVTISVDKSKNQFSLKLISVTAADTAVYYCAREGIGWPSFDYWGQGTLVTVSS VL: SSELTQDPAASVALGQTVRITCQGDTLRSYYASWYQQKPGQAPILVIYGKNNRPSGIPDRFSGSSSGNTASLTITGAQAEDEADYYCNSRDSSGKNLVFGGGTKLTVL : 11.8

Assign IC 50 (NK-92) in pM to the following record: Antibody 72 (antibody, V domains shown) VH: QVQLQESGPGLVKPSGTLSLTCAVSGGSISSSNWWSWVRQPPGKGLEWIGEIYHYGYTNYNPSLKSRVTISVDKSKNQFSLKLSSVTAADTAVYYCAREGIGWPSFDYWGQGTLVTVSS VL: SSELTQDPAASVALGQTVRITCQGDTLRSYYASWYQQKPGQAPILVIYGKNNRPSGIPDRFSGSSSGNTASLTITGAQAEDEADYYCNSRDFSGKNLVFGGGTKLTVL
20.9
